FYI, the data here is from ChEMBL document CHEMBL1165950.

Each item that follows carries a reported growth at 10 µM.
System: UACC-62
Assay: Cytotoxicity against human UACC62 cells assessed as cell growth at 10 uM
Type: functional
Details: read-out: Activity
Readout Label: growth at 10 µM (%)

| Compound | Measurement Units | Observed |
| --- | --- | --- |
| COc1cc(C)cc(-c2nn(CC#N)cc2-c2ccnc(-c3ccc(N(C)C)cc3)c2)c1 | % | 19.1 |
| COc1cc(C)cc(-c2nn(CC#N)cc2-c2ccc(-c3cccc(C(C)=O)c3)nc2)c1 | % | 27.2 |
| Cc1cc(O)cc(-c2nn(CC#N)cc2-c2ccnc(-c3ccc(N(C)C)cc3)c2)c1 | % | 25.1 |
| Cc1cc(O)cc(-c2nn(CC#N)cc2-c2ccnc(-c3ccccc3)c2)c1 | % | 59.8 |
| COc1cc(C)cc(-c2c(-c3ccnc(-c4ccc(N(C)C)cc4)c3)cnn2CC#N)c1 | % | 20.3 |
| COc1cc(C)cc(-c2nn(CC#N)cc2-c2ccnc(-c3ccc(C#N)cc3)c2)c1 | % | 59.4 |
| COc1cc(C)cc(-c2nn(CC#N)cc2-c2ccnc(-c3ccc(C(C)=O)cc3)c2)c1 | % | 64.6 |
| COc1cc(C)cc(-c2c(-c3ccnc(-c4cccc(NC(C)=O)c4)c3)cnn2CC#N)c1 | % | 81.6 |
| Cc1cc(O)cc(-c2nn(CC#N)cc2-c2ccnc(-c3ccc(C#N)cc3)c2)c1 | % | 62.3 |

---

Test system: ACHN
Test: Cytotoxicity against human ACHN cells assessed as cell growth at 1 uM after 48 hrs by sulforhodamine B assay
Format: functional
Settings: read-out: Activity

| Compound | Measurement Units | growth at 1 µM |
| --- | --- | --- |
| Cc1cc(O)cc(-c2nn(CC#N)cc2-c2ccnc(-c3ccc(N(C)C)cc3)c2)c1 | % | 18 |
| COc1cc(C)cc(-c2c(-c3ccnc(-c4ccc(C(C)=O)cc4)c3)cnn2CC#N)c1 | % | 21 |
| COc1cc(C)cc(-c2nn(CC#N)cc2-c2ccnc(-c3ccc(N(C)C)cc3)c2)c1 | % | 2 |
| COc1cc(C)cc(-c2nn(CC#N)cc2-c2ccc(-c3cccc(C(C)=O)c3)nc2)c1 | % | 24 |
| COc1cc(C)cc(-c2c(-c3ccnc(-c4ccc(N(C)C)cc4)c3)cnn2CC#N)c1 | % | 19 |
| Cc1cc(O)cc(-c2nn(CC#N)cc2-c2ccnc(-c3ccc(Oc4ccccc4)cc3)c2)c1 | % | -4 |

---

Tested on: 786-0
Assay: Cytotoxicity against human 786-0 cells assessed as cell growth at 0.01 uM after 48 hrs by sulforhodamine B assay
Type: functional
Details: 786-0, 48 h, read-out: Activity
Readout Label: growth at 0.01 µM (%)

| Compound | Study Target | Observed |
| --- | --- | --- |
| COc1cc(C)cc(-c2c(-c3ccnc(-c4ccc(C(C)=O)cc4)c3)cnn2CC#N)c1 | 786-0 | 98 |
| Cc1cc(O)cc(-c2nn(CC#N)cc2-c2ccnc(-c3ccc(N(C)C)cc3)c2)c1 | 786-0 | 88 |
| Cc1cc(O)cc(-c2nn(CC#N)cc2-c2ccnc(-c3ccc(Oc4ccccc4)cc3)c2)c1 | 786-0 | 95 |
| COc1cc(C)cc(-c2nn(CC#N)cc2-c2ccc(-c3cccc(C(C)=O)c3)nc2)c1 | 786-0 | 97 |
| COc1cc(C)cc(-c2nn(CC#N)cc2-c2ccnc(-c3ccc(N(C)C)cc3)c2)c1 | 786-0 | 96 |
| COc1cc(C)cc(-c2c(-c3ccnc(-c4ccc(N(C)C)cc4)c3)cnn2CC#N)c1 | 786-0 | 55 |

---

Tested on: SK-OV-3
Assay: Growth inhibition of human SKOV3 cells after 48 hrs by sulforhodamine B assay
Format: functional
Settings: SK-OV-3, 48 h
# Lookup of reported GI50 keyed by entry
Readout Label: GI50

| Compound | Study Target | Readout Label | Observed |
| --- | --- | --- | --- |
| COc1cc(C)cc(-c2c(-c3ccnc(-c4ccc(C(C)=O)cc4)c3)cnn2CC#N)c1 | SK-OV-3 | GI50 | 4220 nM |
| Cc1cc(O)cc(-c2nn(CC#N)cc2-c2ccnc(-c3ccc(Oc4ccccc4)cc3)c2)c1 | SK-OV-3 | GI50 | 1200 nM |
| COc1cc(C)cc(-c2c(-c3ccnc(-c4ccc(N(C)C)cc4)c3)cnn2CC#N)c1 | SK-OV-3 | GI50 | 504 nM |
| COc1cc(C)cc(-c2nn(CC#N)cc2-c2ccc(-c3cccc(C(C)=O)c3)nc2)c1 | SK-OV-3 | GI50 | 3130 nM |
| Cc1cc(O)cc(-c2nn(CC#N)cc2-c2ccnc(-c3ccc(N(C)C)cc3)c2)c1 | SK-OV-3 | GI50 | 2850 nM |
| COc1cc(C)cc(-c2nn(CC#N)cc2-c2ccnc(-c3ccc(N(C)C)cc3)c2)c1 | SK-OV-3 | GI50 | 304 nM |

---

Tested on: U-251
Experiment: Cytotoxicity against human U251 cells assessed as cell growth at 1 uM after 48 hrs by sulforhodamine B assay
Assay type: functional
Settings: U-251, 48 h, read-out: Activity

| Compound | growth at 1 µM, % |
| --- | --- |
| COc1cc(C)cc(-c2nn(CC#N)cc2-c2ccc(-c3cccc(C(C)=O)c3)nc2)c1 | 6 |
| COc1cc(C)cc(-c2c(-c3ccnc(-c4ccc(C(C)=O)cc4)c3)cnn2CC#N)c1 | 4 |
| COc1cc(C)cc(-c2c(-c3ccnc(-c4ccc(N(C)C)cc4)c3)cnn2CC#N)c1 | 6 |
| COc1cc(C)cc(-c2nn(CC#N)cc2-c2ccnc(-c3ccc(N(C)C)cc3)c2)c1 | -5 |
| Cc1cc(O)cc(-c2nn(CC#N)cc2-c2ccnc(-c3ccc(N(C)C)cc3)c2)c1 | 8 |
| Cc1cc(O)cc(-c2nn(CC#N)cc2-c2ccnc(-c3ccc(Oc4ccccc4)cc3)c2)c1 | -97 |

---

Test system: M14
Experiment: Cytotoxicity against human M14 cells assessed as cell growth at 0.01 uM after 48 hrs by sulforhodamine B assay
Type: functional
Conditions: M14, 48 h, read-out: Activity

| Compound | Study Target | growth at 0.01 µM |
| --- | --- | --- |
| COc1cc(C)cc(-c2c(-c3ccnc(-c4ccc(N(C)C)cc4)c3)cnn2CC#N)c1 | M14 | -19% |
| COc1cc(C)cc(-c2c(-c3ccnc(-c4ccc(C(C)=O)cc4)c3)cnn2CC#N)c1 | M14 | 86% |
| Cc1cc(O)cc(-c2nn(CC#N)cc2-c2ccnc(-c3ccc(Oc4ccccc4)cc3)c2)c1 | M14 | 96% |
| COc1cc(C)cc(-c2nn(CC#N)cc2-c2ccnc(-c3ccc(N(C)C)cc3)c2)c1 | M14 | 93% |
| Cc1cc(O)cc(-c2nn(CC#N)cc2-c2ccnc(-c3ccc(N(C)C)cc3)c2)c1 | M14 | 92% |
| COc1cc(C)cc(-c2nn(CC#N)cc2-c2ccc(-c3cccc(C(C)=O)c3)nc2)c1 | M14 | 93% |

---

Test system: CAKI-1
Assay: Cytotoxicity against human Caki1 cells assessed as cell growth at 100 nM after 48 hrs by sulforhodamine B assay
Type: functional
Conditions: CAKI-1, 48 h, read-out: Activity
Readout Label: growth at 0.1 µM (%)

| Compound | Readout Label | Measurement Units | Observed |
| --- | --- | --- | --- |
| Cc1cc(O)cc(-c2nn(CC#N)cc2-c2ccnc(-c3ccc(N(C)C)cc3)c2)c1 | growth at 0.1 µM | % | 85 |
| Cc1cc(O)cc(-c2nn(CC#N)cc2-c2ccnc(-c3ccc(Oc4ccccc4)cc3)c2)c1 | growth at 0.1 µM | % | 75 |
| COc1cc(C)cc(-c2nn(CC#N)cc2-c2ccc(-c3cccc(C(C)=O)c3)nc2)c1 | growth at 0.1 µM | % | 69 |
| COc1cc(C)cc(-c2c(-c3ccnc(-c4ccc(C(C)=O)cc4)c3)cnn2CC#N)c1 | growth at 0.1 µM | % | 86 |
| COc1cc(C)cc(-c2c(-c3ccnc(-c4ccc(N(C)C)cc4)c3)cnn2CC#N)c1 | growth at 0.1 µM | % | -21 |
| COc1cc(C)cc(-c2nn(CC#N)cc2-c2ccnc(-c3ccc(N(C)C)cc3)c2)c1 | growth at 0.1 µM | % | 14 |

---

Assay: Growth inhibition of human […] cells after 48 hrs by sulforhodamine B assay
Assay type: functional
GI50: recorded values
Readout Label: GI50 (nM)

| Compound | Measurement Units | Observed |
| --- | --- | --- |
| COc1cc(C)cc(-c2nn(CC#N)cc2-c2ccnc(-c3ccc(N(C)C)cc3)c2)c1 | nM | 1360 |
| Cc1cc(O)cc(-c2nn(CC#N)cc2-c2ccnc(-c3ccc(N(C)C)cc3)c2)c1 | nM | 3710 |
| COc1cc(C)cc(-c2nn(CC#N)cc2-c2ccc(-c3cccc(C(C)=O)c3)nc2)c1 | nM | 3300 |
| COc1cc(C)cc(-c2c(-c3ccnc(-c4ccc(C(C)=O)cc4)c3)cnn2CC#N)c1 | nM | 2590 |
| COc1cc(C)cc(-c2c(-c3ccnc(-c4ccc(N(C)C)cc4)c3)cnn2CC#N)c1 | nM | 266 |
| Cc1cc(O)cc(-c2nn(CC#N)cc2-c2ccnc(-c3ccc(Oc4ccccc4)cc3)c2)c1 | nM | 2250 |
